protocol.text: Toxicity in zebrafish embryo assessed as lethality at 30 uM after 120 hrs
Assay type: organism-based, Danio rerio
measurement.setup: in vivo, read-out: Activity
property.measured: mortality at 120 h, 30 µM

**Q:** Form field: reported mortality at 120 h, 30 µM of O=C1Nc2ccc(Cl)cc2/C1=C/c1cc(Br)c(O)c(Br)c1
**A:** 40%

* * *

target.entity: Leucine-rich repeat serine/threonine-protein kinase 2 (Homo sapiens, UniProt Q5S007)
Sequence (Q5S007 whole entry): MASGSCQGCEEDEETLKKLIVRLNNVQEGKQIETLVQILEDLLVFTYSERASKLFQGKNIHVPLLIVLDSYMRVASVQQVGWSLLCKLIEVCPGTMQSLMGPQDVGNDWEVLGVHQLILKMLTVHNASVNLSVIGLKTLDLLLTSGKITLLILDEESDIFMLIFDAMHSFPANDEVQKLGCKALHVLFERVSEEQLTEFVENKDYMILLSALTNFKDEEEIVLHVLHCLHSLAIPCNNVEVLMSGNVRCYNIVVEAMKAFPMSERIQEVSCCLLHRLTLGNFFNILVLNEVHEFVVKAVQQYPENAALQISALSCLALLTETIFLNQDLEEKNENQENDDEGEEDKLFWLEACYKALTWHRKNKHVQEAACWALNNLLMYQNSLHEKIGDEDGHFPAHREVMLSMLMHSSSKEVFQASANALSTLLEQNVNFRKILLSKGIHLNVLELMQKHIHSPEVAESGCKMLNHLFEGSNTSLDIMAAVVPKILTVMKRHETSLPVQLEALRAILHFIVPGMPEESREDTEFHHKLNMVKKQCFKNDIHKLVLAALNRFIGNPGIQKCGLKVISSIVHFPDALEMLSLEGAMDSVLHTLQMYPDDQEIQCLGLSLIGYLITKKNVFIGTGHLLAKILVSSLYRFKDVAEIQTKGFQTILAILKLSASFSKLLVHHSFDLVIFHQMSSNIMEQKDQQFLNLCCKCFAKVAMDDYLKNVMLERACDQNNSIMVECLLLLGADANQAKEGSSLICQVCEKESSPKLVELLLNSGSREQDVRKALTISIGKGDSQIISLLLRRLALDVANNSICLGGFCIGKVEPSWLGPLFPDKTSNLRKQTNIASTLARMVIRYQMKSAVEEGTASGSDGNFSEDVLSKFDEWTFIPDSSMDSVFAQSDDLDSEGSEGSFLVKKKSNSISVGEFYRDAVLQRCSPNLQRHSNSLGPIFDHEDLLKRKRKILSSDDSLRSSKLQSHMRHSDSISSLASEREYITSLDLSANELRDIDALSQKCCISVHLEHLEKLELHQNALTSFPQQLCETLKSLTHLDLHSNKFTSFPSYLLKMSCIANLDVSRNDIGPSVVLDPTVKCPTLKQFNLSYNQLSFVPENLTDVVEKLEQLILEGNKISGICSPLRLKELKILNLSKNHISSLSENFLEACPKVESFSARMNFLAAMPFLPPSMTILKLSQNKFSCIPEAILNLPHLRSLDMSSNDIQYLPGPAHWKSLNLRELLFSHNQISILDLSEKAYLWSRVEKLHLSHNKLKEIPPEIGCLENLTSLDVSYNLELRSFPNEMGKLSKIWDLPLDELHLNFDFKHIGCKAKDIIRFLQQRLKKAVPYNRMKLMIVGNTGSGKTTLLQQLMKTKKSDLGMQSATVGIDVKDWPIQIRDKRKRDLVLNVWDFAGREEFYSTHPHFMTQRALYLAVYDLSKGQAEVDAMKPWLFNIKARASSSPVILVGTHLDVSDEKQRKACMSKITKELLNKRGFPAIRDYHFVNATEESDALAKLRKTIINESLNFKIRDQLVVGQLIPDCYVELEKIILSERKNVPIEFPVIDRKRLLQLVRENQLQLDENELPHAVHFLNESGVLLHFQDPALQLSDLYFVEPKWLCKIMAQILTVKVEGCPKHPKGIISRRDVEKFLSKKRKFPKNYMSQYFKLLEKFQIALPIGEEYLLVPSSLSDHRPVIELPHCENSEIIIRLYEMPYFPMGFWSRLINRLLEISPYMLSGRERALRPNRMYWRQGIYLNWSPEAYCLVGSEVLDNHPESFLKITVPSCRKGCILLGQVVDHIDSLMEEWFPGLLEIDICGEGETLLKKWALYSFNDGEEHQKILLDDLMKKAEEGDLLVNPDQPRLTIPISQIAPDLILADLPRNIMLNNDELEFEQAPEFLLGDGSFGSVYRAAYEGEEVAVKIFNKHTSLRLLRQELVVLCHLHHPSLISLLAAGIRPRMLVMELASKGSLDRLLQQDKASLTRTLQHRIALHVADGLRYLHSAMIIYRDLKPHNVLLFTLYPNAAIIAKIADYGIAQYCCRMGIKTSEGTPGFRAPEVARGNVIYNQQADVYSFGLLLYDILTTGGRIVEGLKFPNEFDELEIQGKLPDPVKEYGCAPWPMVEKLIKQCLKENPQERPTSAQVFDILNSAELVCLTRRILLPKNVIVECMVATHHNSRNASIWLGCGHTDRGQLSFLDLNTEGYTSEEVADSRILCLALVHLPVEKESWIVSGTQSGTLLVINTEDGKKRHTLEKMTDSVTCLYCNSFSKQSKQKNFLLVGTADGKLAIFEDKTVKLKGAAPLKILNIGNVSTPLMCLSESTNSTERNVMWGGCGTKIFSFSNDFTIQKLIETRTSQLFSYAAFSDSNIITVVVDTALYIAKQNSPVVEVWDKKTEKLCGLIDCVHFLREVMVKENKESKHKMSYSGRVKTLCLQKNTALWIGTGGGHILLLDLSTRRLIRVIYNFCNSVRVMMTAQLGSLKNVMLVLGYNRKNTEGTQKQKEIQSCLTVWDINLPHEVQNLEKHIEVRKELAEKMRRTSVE
protocol.text: Inhibition of recombinant LRRK2 (unknown origin) using gamma-32P-ATP assessed as LRRKtide substrate phosphorylation level by autoradiography
pIC50: −log10 of the molar value.
Kindly return Yes if reported pIC50 is no lower than 6; return No if it is lower.

**Q:** Form field: pIC50 at least 6? Entry: CN(C)CCOc1ccc(/C=C2/C(=O)Nc3ccc(Cl)cc32)cc1
**A:** Yes

Further cases:
**Q:** Dear colleague, could you confirm whether COc1cc(/C=C2/C(=O)Nc3ccc(Cl)cc32)ccc1OCCN1CCOCC1 has pIC50 at or above 6?
**A:** Yes

**Q:** Moving on to the next compound: O=C1Nc2ccc(Cl)cc2/C1=C\c1ccc(OCCN2CCOCC2)cc1
**A:** Yes

**Q:** Try this compound too: COc1ccc2c(c1)/C(=C\c1cc(Br)c(O)c(Br)c1)C(=O)N2
**A:** Yes

**Q:** And then O=C1Nc2ccc(Cl)cc2/C1=C\c1ccccc1 , what is it?
**A:** No

**Q:** Thanks! And O=C1Nc2ccc(Cl)cc2/C1=C\c1ccc(O)cc1 ?
**A:** No

* * *

target.entity: Leucine-rich repeat serine/threonine-protein kinase 2 (Homo sapiens, UniProt Q5S007)
protocol.text: Inhibition of recombinant LRRK2 (unknown origin) using gamma-32P-ATP assessed as LRRKtide substrate phosphorylation level at 10 uM by autoradiography
Design: scale not given: the % may be the effect or the level left
property.measured: Activity (%)
The response must be a number in % with no trailing unit.

**Q:** Report Activity for COc1cc(/C=C2/C(=O)Nc3ccc(Cl)cc32)ccc1N1CCOCC1 please.
**A:** 33

**Q:** Item: O=C1Nc2ccc(Cl)cc2/C1=C\c1ccc(OCCN2CCOCC2)cc1
**A:** 15

**Q:** Try this molecule too: COc1cc(C(=O)N2CCC(N3CCN(C)CC3)CC2)ccc1Nc1ncc2c(n1)N(C)c1ccccc1C(=O)N2C
**A:** 5

**Q:** Would you mind doing O=C1Nc2ccc(Cl)cc2/C1=C\c1ccccc1 as well?
**A:** 16

**Q:** Further, for CN[C@@H]1C[C@H]2O[C@@](C)([C@@H]1OC)n1c3ccccc3c3c4c(c5c6ccccc6n2c5c31)C(=O)NC4 ?
**A:** 2

**Q:** Another molecule to check: COc1cc(/C=C2/C(=O)Nc3ccc(Cl)cc32)ccc1OCCN1CCOCC1
**A:** 9

**Q:** Further, for COc1cc(/C=C2/C(=O)Nc3ccc(Cl)cc32)ccc1OCCN(C)C ?
**A:** 24

**Q:** Then this molecule: O=C1Nc2ccc(Cl)cc2/C1=C\c1ccc(O)cc1
**A:** 8

**Q:** Please do the same for COc1cc(OCCN(C)C)ccc1/C=C1/C(=O)Nc2ccc(Cl)cc21 as well.
**A:** 29

New cases:
**Q:** Find the recorded Activity belonging to CN(C)CCOc1ccc(/C=C2/C(=O)Nc3ccc(Cl)cc32)cc1 and report it.
**A:** 3

* * *

protocol.text: Toxicity in zebrafish embryo assessed as lethality at 20 to 30 uM after 24 hrs
Assay type: organism-based, Danio rerio
measurement.setup: in vivo, read-out: Activity
property.measured: mortality at 24 h, up to 30 µM

**Q:** Quick check: mortality at 24 h, up to 30 µM of O=C1Nc2ccc(Cl)cc2/C1=C\c1ccc(O)c(Br)c1 ?
**A:** > 80%

* * *

target.entity: Leucine-rich repeat serine/threonine-protein kinase 2 (Homo sapiens, UniProt Q5S007)
protocol.text: Inhibition of recombinant LRRK2 (unknown origin) using gamma-32P-ATP assessed as LRRKtide substrate phosphorylation level at 1 uM by autoradiography
Design: scale not given: the % may be the effect or the level left
property.measured: Activity (%)
Please reply with the bare figure in % and do not write the unit itself.

// known answers, use as guide
**Q:** // lookup Activity for COc1cc(C(=O)N2CCC(N3CCN(C)CC3)CC2)ccc1Nc1ncc2c(n1)N(C)c1ccccc1C(=O)N2C
**A:** 13

**Q:** Next up: COc1cc(/C=C2/C(=O)Nc3ccc(Cl)cc32)ccc1N1CCOCC1
**A:** 22

Others:
**Q:** Using the record for COc1cc(OCCN(C)C)ccc1/C=C1/C(=O)Nc2ccc(Cl)cc21 , report its Activity.
**A:** 62

**Q:** Would you kindly repeat that for O=C1Nc2ccc(Cl)cc2/C1=C\c1ccc(O)cc1 ?
**A:** 12

**Q:** Please do the same for CN[C@@H]1C[C@H]2O[C@@](C)([C@@H]1OC)n1c3ccccc3c3c4c(c5c6ccccc6n2c5c31)C(=O)NC4 as well.
**A:** 5

* * *

Below, each entry is listed with its recorded Activity.
target.entity: Leucine-rich repeat serine/threonine-protein kinase 2 (Homo sapiens)
protocol.text: Inhibition of recombinant LRRK2 (unknown origin) using gamma-32P-ATP assessed as LRRKtide substrate phosphorylation level at 1 uM by autoradiography
Parameters: scale not given: the % may be the effect or the level left
Could you give me the number in %? Just the number is fine.

Some entries whose results are on file:
**Q:** For the compound COc1cc(/C=C2/C(=O)Nc3ccc(Cl)cc32)ccc1OCCN(C)C , what Activity is on record?
**A:** 26

**Q:** Thanks! And O=C1Nc2ccc(Cl)cc2/C1=C\c1ccccc1 ?
**A:** 27

**Q:** Then CN(C)CCOc1ccc(/C=C2/C(=O)Nc3ccc(Cl)cc32)cc1 ?
**A:** 22

**Q:** Item: COc1cc(/C=C2/C(=O)Nc3ccc(Cl)cc32)ccc1OCCN1CCOCC1
**A:** 8

# evaluate next
**Q:** Suppose we examine the compound O=C1Nc2ccc(Cl)cc2/C1=C\c1ccc(OCCN2CCOCC2)cc1 ; what Activity value has been reported?
**A:** 37

These data points were gathered from ChEMBL document CHEMBL3352815.
